molecular target: T1, dimeric human PRLR (hPRLR.mFc; SEQ ID NO:402) (Homo sapiens, UniProt P16471); assay: Surface plasmon resonance (Biacore T200), antibody-capture format; type: binding; conditions: 25° C., analyte hPRLR.mFc
T1 construct: dimeric (hPRLR.mFc)
T1 sequence (P16471 with tags, fused parts or gaps): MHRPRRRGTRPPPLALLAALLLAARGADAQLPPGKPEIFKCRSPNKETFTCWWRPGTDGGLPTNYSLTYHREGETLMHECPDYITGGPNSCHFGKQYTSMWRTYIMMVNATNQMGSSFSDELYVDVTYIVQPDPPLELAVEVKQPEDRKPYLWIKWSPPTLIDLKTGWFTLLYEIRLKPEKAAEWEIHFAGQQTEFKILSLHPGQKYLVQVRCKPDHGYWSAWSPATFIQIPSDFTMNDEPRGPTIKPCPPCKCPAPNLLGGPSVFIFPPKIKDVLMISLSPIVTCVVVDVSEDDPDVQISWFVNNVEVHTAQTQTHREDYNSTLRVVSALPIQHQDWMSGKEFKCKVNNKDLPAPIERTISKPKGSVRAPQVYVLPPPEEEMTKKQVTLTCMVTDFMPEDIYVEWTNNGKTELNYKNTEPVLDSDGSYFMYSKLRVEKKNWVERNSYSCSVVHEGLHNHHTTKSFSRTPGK
OBSERVATION_TYPE: kd (s⁻¹)
Reply numerically in s⁻¹, unit not repeated.

response.value for H1H6790P: fully human anti-PRLR antibody, human IgG1 Fc; HCVR/LCVR SEQ ID NOs 114/122 (antibody, V domains shown) VH: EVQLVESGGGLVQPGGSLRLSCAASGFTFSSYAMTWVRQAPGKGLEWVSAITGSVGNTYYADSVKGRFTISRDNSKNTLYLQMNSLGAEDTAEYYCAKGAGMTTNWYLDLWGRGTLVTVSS VL: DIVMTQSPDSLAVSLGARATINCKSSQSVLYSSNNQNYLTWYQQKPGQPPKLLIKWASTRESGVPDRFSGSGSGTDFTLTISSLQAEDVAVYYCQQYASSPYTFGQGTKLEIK (field: kd) = 0.000104
